# Tested on: PRKACA-PRKAR2A interaction (SmBiT-PRKACA / LgBiT-PRKAR2A), protein kinase A
# Design: NanoLuc complementation counter-screen in cell extract, PRKACA with PRKAR2A, loss of luminescence, detects NanoLuc interference
# ASSAY_CONDITIONS: counter-screen for NanoLuc interference; 0.5 h, 20 µM; inhibitor
Counter-ions that a name gives are not always drawn.
QUANTITY: Inh (PKA) (%)
Answers are plain numbers, in %.

Some solved cases for reference:
>>> df
                                   compound  reading_unit  value_observed
0  O=C(O)c1cccc(-c2noc(-c3ccccc3F)n2)c1 [UM0142085:01, PTC124 (Ataluren)]             %           9.195
1  Oc1ccc(OC2CCCCO2)cc1 (stereo not shown) [UM0142392:01, Deoxyarbutin]             %           1.229
2  COc1ccc(CNc2nc(N(CCO)CCO)nc3c2ncn3C(C)C)cc1 [UM0127838:02, CVT-313]             %           6.845

I'm hoping you can list Inh (PKA) for every compound here, please.
1. O=C(N/N=C/c1ccc(O)c(O)c1)c1cc2ccccc2cc1O [UM0141404:01, Dynasore]
2. CNCC[C@H](Oc1cccc2ccccc12)c1cccs1 [UM0133232:02, Duloxetine HCl]
3. CC(C)c1noc(N2CCC(COc3ccc(-c4ccc(S(C)(=O)=O)cc4)nc3)CC2)n1 [UM0142042:01, GSK1292263]
4. COc1cc(Nc2c(C#N)cnc3cc(OCCCN4CCN(C)CC4)c(OC)cc23)c(Cl)cc1Cl [UM0141444:01, Bosutinib (SKI-606)]
5. O=C1CN2Cc3c(ccc(Cl)c3Cl)N=C2N1 [UM0141804:01, Anagrelide HCl]
6. CCOC(=O)C1=C[C@]2(CC)CCCN3CCc4c(n1c1ccccc41)[C@@H]32 [UM0142468:01, Vinpocetine]
7. CC(C)C(=O)SCCCCCCC(=O)Nc1nc(-c2ccccc2)cs1 [UM0128574:02, NCH 51]

Marked response:
[24, 23.56, 2.417, 20.21, 2.161, 12.65, 3.39]

Could you tell me Inh (PKA) for each of these compounds? They are listed below.
1. c1cc(OCCN2CCCCC2)cc(-c2n[nH]c3ccc(-c4nnc[nH]4)cc23)c1 [UM0142189:01, CC-401]
2. CNC(=O)c1ccccc1Oc1nc(Nc2cc(OC)c(OC)c(OC)c2)ncc1Br [UM0142126:01, SBI-0206965]
3. CCCCCCCN(CC)CCCC(O)c1ccc(NS(C)(=O)=O)cc1 (stereo not shown) [UM0142470:01, Ibutilide Fumarate]

Marked response:
1.846
34.96
0.4733
